Assay: Pharmacokinetics in CD-1 mice
Type: in vivo
Conditions: mouse, plasma, 30 mg/kg, single intravenous administration, read-out: F (bioavailability)
readout type: bioavailability (%)

{"columns": ["compound", "bioavailability, %"],
 "data": [
  ["C[C@@H]1CC[C@H]2[C@@H](C)C(OCc3cn(CCN4C(=O)C(=O)c5cc(F)ccc54)nn3)O[C@@H]3O[C@@]4(C)CC[C@@H]1[C@]32OO4 (some centres unmarked)", 27.5],
  ["C[C@@H]1CC[C@H]2[C@@H](C)C(OCc3cn(CCN4C(=O)C(=O)c5ccccc54)nn3)O[C@@H]3O[C@@]4(C)CC[C@@H]1[C@]32OO4 (some centres unmarked)", 35.6]
]}
